system: CHEK1; conditions: concentration: 1 μM, replicates: in singlicate; n = 1;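 further: KINOMEscan kinase panel screen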
endpoint-name: %Inh (%)
Numbers only, in %.

CCCc1ccc(S(=O)(=O)NC2CCN(c3ccnc(Nc4ccc(OC)cc4)n3)C2)cc1 (stereo not drawn)
0
CC(=O)Nc1n[nH]c2ncc(-c3ccccc3)cc12
0
Nc1nccc2scc(-c3ccc4c(c3)CCN4C(=O)Cc3cc(F)ccc3F)c12
8
CCC(CC)(CC)n1cnc2c(N)ncnc21
0
O=C(Nc1ccccc1F)NC1CCN(c2ccnc(Nc3ccc(F)cc3)n2)C1 (stereo not drawn)
8
Cc1ccc(C)c(NC(=O)NCCNc2ccnc(Nc3ccc(F)cc3)n2)c1
5

Provide reported %Inh for each item, in the same order as listed.
1. O=C(NCCCN1CCCC1=O)c1cnc(NCc2cc(Cl)ccc2Cl)nc1NC1CCNCC1
2. Fc1cccc(COc2ccc(Nc3ncnc4sc(-c5ccc[nH]5)cc34)cc2Cl)c1

Out:
1: 0; 2: 7

In: State its %Inh on CHEK1: `O=C(CCO)NCCn1ccc2ncnc(Nc3ccc(Oc4cccc(C(F)(F)F)c4)c(Cl)c3)c21`
Out: 0

---

Assign %Inh to each entry below.
test system: ABL1-phosphorylated; conditions: concentration: 1 μM, replicates: in singlicate; n = 1
Answers are plain numbers, in %.

FC(F)(F)c1cc(Nc2nccc(-c3c(-c4ccc(Cl)cc4)nn4ncccc34)n2)ccc1Cl
0
Cl.Cl.c1ccc(-c2cc3ccncc3cc2OC2CCNCC2)cc1
0
Fc1cccc(COc2ccc(Nc3ncnc4cc[nH]c34)cc2Cl)c1
21
COc1ccc(NC(=O)c2ccc(-c3cc(-c4nnc(C)o4)ccc3C)cc2)cc1
0
COc1cc2ncnc(Nc3ccc(OCc4ccccc4Br)c(Cl)c3)c2cc1OC.Cl
0
CC(=O)Nc1n[nH]c2ncc(-c3ccccc3)cc12
20
CS(=O)(=O)CCNCc1ccc(-c2ccc3ncnc(Nc4ccc(OCc5ccccc5)c(Cl)c4)c3c2)o1.Cl
0
Cl.Cn1ccc(-c2cccc(Nc3ccnc4cc(-c5nccs5)ccc34)c2)n1
1

Okay, now this compound:
In: Sample `C[C@@H]1CCN(C(=O)CO)C[C@@H]1N(C)c1ncnc2[nH]ccc12` — what was its %Inh?
Out: 0

---

Assign %Inh to each entry below.
tested on: PAK1; conditions: concentration: 1 μM, replicates: in singlicate; n = 1
One number for each entry, in %.

Below, each entry is followed by its recorded %Inh result.
O=C(Nc1ccccc1F)NC1CCN(c2ccnc(Nc3ccc(F)cc3)n2)C1 (stereo not drawn)
2
COC(=O)c1c(-c2ccccc2)c2cc(Cl)ccc2c(=O)n1Cc1ccc(S(C)(=O)=O)cc1
6
Cc1ccc(C)c(NC(=O)NCCNc2ccnc(Nc3ccc(F)cc3)n2)c1
0
CN1CCC(n2cnc(-c3ccc(F)cc3)c2-c2ccnc(NC3CCNCC3)n2)CC1
0
O=c1cc(N2CCOCC2)nc2n(Cc3cccc(Cl)c3)ccn12
6
c1ccc(-c2ccc3c(-c4ccnc(Nc5ccc6c(c5)OCCO6)n4)cnn3n2)cc1
6
Fc1cccc(COc2ccc(Nc3ncnc4cc[nH]c34)cc2Cl)c1
30
Nc1nc(-c2ccc3c(N)n[nH]c3c2)cc(N2CCCCC2)n1
2

Okay, now this molecule:
In: Sample `FC(F)(F)c1cc(Nc2nccc(-c3c(-c4ccc(Cl)cc4)nn4ncccc34)n2)ccc1Cl` — what was its %Inh?
Out: 0

---

system: TRKA; construct: gene NTRK1; details: concentration: 1 μM, replicates: in singlicate; n = 1
Assign %Inh to each entry below.
Numbers only, in %.

Provide reported %Inh for each item, in the same order as listed.
1. O=C(c1ccc(-c2cc(-c3c[nH]nc3-c3ccccn3)ccn2)cc1)N1CCCC1 [GW792479]
2. c1ccc(-c2ccc3c(-c4ccnc(Nc5ccc6c(c5)OCCO6)n4)cnn3n2)cc1 [GW818941]

Out:
1: 0; 2: 34
